molecular target: 5-hydroxytryptamine receptor 7 (Homo sapiens, UniProt P34969); assay: Antagonist activity at human 5-HT7 receptor expressed in HEK293 cells assessed as inhibition of 5-CT-induced cAMP production at 10 uM preincubated for 15 mins followed by 5-CT addition measured after 15 mins by HTRF assay; format: functional, cell-based
Sequence (P34969 whole entry): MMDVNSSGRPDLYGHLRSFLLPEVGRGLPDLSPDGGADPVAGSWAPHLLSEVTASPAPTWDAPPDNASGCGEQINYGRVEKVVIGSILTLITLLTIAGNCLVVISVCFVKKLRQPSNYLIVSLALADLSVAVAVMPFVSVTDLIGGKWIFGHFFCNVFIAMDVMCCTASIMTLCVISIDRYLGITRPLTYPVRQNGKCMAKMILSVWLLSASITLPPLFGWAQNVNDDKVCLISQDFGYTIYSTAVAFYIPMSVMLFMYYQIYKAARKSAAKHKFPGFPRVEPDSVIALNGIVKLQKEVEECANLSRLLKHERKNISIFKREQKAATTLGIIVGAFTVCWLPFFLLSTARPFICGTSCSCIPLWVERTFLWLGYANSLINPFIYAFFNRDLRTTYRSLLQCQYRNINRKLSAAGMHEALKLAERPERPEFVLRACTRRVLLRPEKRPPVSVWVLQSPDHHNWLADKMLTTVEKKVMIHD
quantity: inhibition (%)

Examples from the recorded data:
Provide inhibition value for the following compound: CC1(c2ccc(F)cc2)NC(=O)N(CC(O)CN2CCN(c3ccc(Cl)cc3)CC2)C1=O (configuration not stated)
16

Return the recorded inhibition value; entry: CC1(c2ccc(F)cc2)NC(=O)N(CC(O)CN2CCN(c3ccccc3F)CC2)C1=O (configuration not stated)
6

Please supply the value of reported inhibition for the item Cc1ccc(N2CCN(CC(O)CN3C(=O)NC(C)(c4ccc(F)cc4)C3=O)CC2)cc1C (configuration not stated)
19

[I] CC1(c2ccc(F)cc2)NC(=O)N(CC(O)CN2CCN(c3ccc(F)cc3F)CC2)C1=O (configuration not stated)
[II] CC1(c2ccc(F)cc2)NC(=O)N(CC(O)CN2CCN(c3ccccc3Cl)CC2)C1=O (configuration not stated)
For I and II , which recorded inhibition is lower? When you have decided, please share the label of that item.
I

[1] CC1(c2ccc(F)cc2)NC(=O)N(CC(O)CN2CCN(c3ccccc3)CC2)C1=O (configuration not stated)
[2] CC1(c2ccc(F)cc2)NC(=O)N(CC(O)CN2CCN(c3ccc(F)cc3)CC2)C1=O (configuration not stated)
Exercise: compare 1 and 2 ; which one has the greater inhibition? Answer by quoting the chosen item's label.
1

Source listed as ChEMBL document CHEMBL3769356.
